From: PubChem BioAssay AID1578

List of inhibition values.
assayRemarks: NOD1 signaling inhibitors, primary screen, cell-based, luminescence, uHTS (AID 1578);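 note: HEK-293T reporter cells stimulated with the NOD1 agonist gamma-tri-DAP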
measurementContext: NOD1-driven NF-kB luciferase reporter cells, at 4 µM, stronger effect = higher value
In all, about 290,000 compounds went through this assay and about 3,000 (1%) were called active. This excerpt belongs to a sample that is enriched for actives.

{"columns": ["compound", "inhibition / %"],
 "data": [
  ["COc1ccc(Cl)cc1NC(=O)CN1C(=O)NC2(CCCC2)C1=O", -8.5],
  ["O=[N+]([O-])c1cc2c(cc1/C=N/Nc1nc(Nc3ccccc3)nc(N3CCCCC3)n1)OCO2", -23],
  ["CC1(C)Cc2ccccc2-c2nc3n(c(=O)c21)CCS3", -12.8],
  ["Cc1ccc(C2C3C(=O)N(c4ccc(C)cc4)C(=O)C3N3CCCN23)cc1 (stereo unspecified)", -7.6],
  ["N#C/C(=C(/O)CCl)c1nc2c(s1)CCc1ccccc1-2", 78.6],
  ["Cc1cc(-c2ccc(C(C)C)c(S(=O)(=O)NCCN3CCC(C)CC3)c2)on1", -17.2],
  ["Nc1nc2c(s1)CCc1ccccc1-2", -11.8],
  ["CC1(C)Cc2ccccc2-c2nc3n(c(=O)c21)CCCS3", 44.3],
  ["N#C/C(=C(/O)CCl)c1nc(-c2ccccc2)cs1", -4.2],
  ["COc1ccc(NC(=O)CCNS(=O)(=O)c2cccc3nsnc23)cc1", -14.3],
  ["N=C1SC(CC(=O)Nc2ccc([N+](=O)[O-])cc2)C(=O)N1c1ccccc1 (stereo unspecified)", -6.5]
]}

###

assayRemarks: NOD1 signaling inhibitors, primary screen, cell-based, luminescence, uHTS (AID 1578);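 note: HEK-293T reporter cells stimulated with the NOD1 agonist gamma-tri-DAP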
measurementContext: NOD1-driven NF-kB luciferase reporter cells, at 4 µM, stronger effect = higher value
In all, about 290,000 compounds went through this assay and about 3,000 (1%) were called active. The full list was thinned out, with actives kept by preference.
Class key for inhibition values: lo: < -20%; med: ≥ -20% and < 10%; hi: ≥ 10%

{"columns": ["compound", "classAssignment"],
 "data": [
  ["Cc1nn(C)cc1/C=N\\NC(=O)Cc1ccc([N+](=O)[O-])cc1", "lo"],
  ["O=C(CSc1nccn1Cc1ccc(F)cc1)NC1CCCC1", "med"],
  ["COc1ccc(/C=N/NC(=O)COc2ccc(Cl)cc2Cl)cc1Cn1nc(C)cc1C", "med"],
  ["Cc1ccccc1C(=O)Nc1ccccn1", "med"],
  ["C#Cc1ccc([C@@H]2C=C(C(=O)N3CCN(Cc4ccc5c(c4)OCO5)CC3)O[C@H](OCCCCO)C2)cc1", "med"],
  ["c1ccc(OCCOCCN2CCOCC2)cc1", "med"],
  ["Cc1ccc(Cn2ccnc2SCC(=O)NC2CCCC2)cc1", "hi"],
  ["COc1ccc(OCc2cc(C(=O)N3CCCCCCC3)no2)c(Cl)c1", "lo"],
  ["Cc1cccc(C)c1NC(=O)C1C2C=CC(C2)C1C(=O)O (configuration not stated)", "lo"],
  ["CCN1CCN(CCOCCOc2ccccc2)CC1", "hi"],
  ["N#C/C(=C\\c1ccc(Sc2nc3ccccc3[nH]2)o1)c1ccccc1", "hi"],
  ["O=C(CSc1nccn1Cc1ccccc1)NC1CCCC1", "hi"]
]}
